From: the supplement of paper PMC10567573

B1: LCOR (parent)
chain: YKVKERLGTLKNPPKKKMKLMSG

- Variants of: B1
- assay.protocol: protein stability index of a GFP-peptide fusion (GPS, HEK-293T) (PSI 1-6); higher = more stable;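 also: lentivirally expressed fusions sorted by FACS into six bins by GFP to DsRed ratio, PSI derived from sequencing read proportions per bin multiplied by bin number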
- run.conditions: c terminus: native
Entry flag: TRUE if protein stability index reaches 2; FALSE if it does not.

1. K16H FALSE

Evaluate `K15Q` : protein stability index at minimum 2? FALSE

Repeat with `L20H` TRUE

Follow-up entry: `L10D` FALSE

Please give the result for `R6T` too. FALSE

And what about the variant `V3E` ? TRUE

Could you do the same for `L7R` , please? FALSE

Now consider `T9W` . TRUE

Could you do the same for `E5H` , please? TRUE

Try this variant next: `M21Y` TRUE

Repeat for the following variant: `K4M` FALSE

Same read-out for `L10H` ? FALSE

Item: `K19G` FALSE

// repeat for `R6Y` and report TRUE
